Data origin, for the record: the supplement of paper PMC13380429

- System: Vero E6
- Test description: cell viability relative to DMSO; higher = less toxic
- Protocol conditions: 72 h; 10000 nM
Listing: cell viability of selected compounds
Quantity: cell viability (%)

[[record]]
compound = "N=C(NCc1ccc(Cl)cc1)SCCCc1c[nH]cn1"
quantity = "cell viability"
units = "%"
reported = 97.5

[[record]]
compound = "CC(=O)SC[C@@H](Cc1ccccc1)C(=O)NCC(=O)OCc1ccccc1 (racemic)"
quantity = "cell viability"
units = "%"
reported = 109

[[record]]
compound = "Cc1ccccc1CN1C(=O)C2=C(CCN(Cc3ccccc3)C2)N2CCN=C12"
quantity = "cell viability"
units = "%"
reported = 32.2

[[record]]
compound = "CS(=O)(=O)OC[C@H](O)[C@@H](O)COS(C)(=O)=O"
quantity = "cell viability"
units = "%"
reported = 106

[[record]]
compound = "CC(C)(C(=O)O)c1ccc(C(=O)CCCN2CCC(OC(c3ccccc3)c3ccccc3)CC2)cc1"
quantity = "cell viability"
units = "%"
reported = 106

